Data provenance: patent US20150368338A1

Target: T1, IFN-αC (human, UniProt P01566 24-189)
T1 construct: also called IFN-α10; alpha C
Test: ProteOn, one antigen concentration
READOUT NAME: pKd
// field semantics: pKd = negative decimal log of concentration (mol/L)

The examples below pair each entry with its known result.
• IFWM3334 (antibody, V domains shown, VH IFWH591, VL IFWL1082; converted mAb; also called IFWB3069) VH: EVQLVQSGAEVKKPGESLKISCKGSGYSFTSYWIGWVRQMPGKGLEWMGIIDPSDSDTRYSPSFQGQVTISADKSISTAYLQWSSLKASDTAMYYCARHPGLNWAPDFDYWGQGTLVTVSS VL: DIQMTQSPSSLSASVGDRVTITCRASQSIRNNSLNWYQQKPGKAPKLLIYAASSLQSGVPSRFSGSGSGTDFTLTISSLQPEDFATYYCQQDYNWPLTFGQGTKVEIK = 9.21
• IFWM3347 (antibody, V domains shown, VH IFWH624, VL IFWL1004; converted mAb; also called IFWB3082) VH: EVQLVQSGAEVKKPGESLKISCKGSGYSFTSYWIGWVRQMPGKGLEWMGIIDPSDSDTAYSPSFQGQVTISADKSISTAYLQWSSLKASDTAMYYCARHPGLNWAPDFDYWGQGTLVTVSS VL: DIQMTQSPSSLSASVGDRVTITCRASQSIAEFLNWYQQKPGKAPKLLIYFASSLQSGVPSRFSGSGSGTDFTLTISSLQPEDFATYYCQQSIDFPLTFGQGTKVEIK = 10.02

As a next step, examine the binder that follows.
Please fill in: pKd reported for IFWM3360 (antibody, V domains shown, VH IFWH624, VL IFWL1048; converted mAb; also called IFWB3095) VH: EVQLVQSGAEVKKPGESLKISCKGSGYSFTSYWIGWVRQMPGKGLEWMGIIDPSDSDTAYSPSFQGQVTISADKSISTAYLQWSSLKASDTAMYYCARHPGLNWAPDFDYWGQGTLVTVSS VL: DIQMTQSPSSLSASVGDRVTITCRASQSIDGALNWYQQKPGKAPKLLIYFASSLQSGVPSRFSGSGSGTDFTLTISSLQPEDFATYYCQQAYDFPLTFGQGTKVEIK = 10.25
